# Tested on: Clone20 osteoblast Shn3 3'UTR firefly luciferase, 24 h
# TEST_PROTOCOL: Shn3 3'UTR reporter inhibitors, dose response, cell-based, Clone20 osteoblasts, luminescence, dry powder, set 2 (AID 743417)
Records with an inconclusive call do not appear.
The reader will find reported AC50 values listed item by item below.

MOLECULE	EXPERIMENTAL_SYSTEM	AC50
O=c1c2ccccc2nc2n1C(CSCc1ccc(Cl)cc1Cl)CS2 (stereo unspecified)	Clone20 osteoblast Shn3 3'UTR firefly luciferase, 24 h	1450 nM
Cc1cccc(CS(=O)(=O)c2ncc(Cl)c(C(=O)Nc3ccc(F)cc3)n2)c1	Clone20 osteoblast Shn3 3'UTR firefly luciferase, 24 h	550 nM
Cc1ccc(-c2nc(-c3ccccn3)no2)cc1	Clone20 osteoblast Shn3 3'UTR firefly luciferase, 24 h	1960 nM
CCCSc1nnc(CSc2nc3ccccc3s2)n1-c1ccccc1	Clone20 osteoblast Shn3 3'UTR firefly luciferase, 24 h	7050 nM
COc1ccccc1NC(=O)Cc1nn(C)c(=O)c2ccccc12	Clone20 osteoblast Shn3 3'UTR firefly luciferase, 24 h	1970 nM

API: value(readout= AC50, system= Clone20 osteoblast Shn3 3'UTR firefly luciferase, 24 h, query= CCCC(c1nnnn1Cc1ccc(OC)cc1)N1CCN(c2ccccc2)CC1 (stereo unspecified) )
31900 nM

API: value(readout= AC50, system= Clone20 osteoblast Shn3 3'UTR firefly luciferase, 24 h, query= C=CS(=O)(=O)c1sc(Cl)c(N2CCOCC2)c1[N+](=O)[O-] )
1310 nM

====

The reader will find reported AC50 values listed item by item below.
# Tested on: Clone20 osteoblast Shn3 3'UTR firefly luciferase, 24 h
# TEST_PROTOCOL: Shn3 3'UTR reporter inhibitors, dose response, cell-based, Clone20 osteoblasts, luminescence, dry powder, set 2 (AID 743417)
Results filed as inconclusive are left out.

Solved entries:
COMPOUND	EXPERIMENTAL_SYSTEM	RESULT
O=C(COC(=O)c1n[nH]c2ccccc12)Nc1ccc(S(=O)(=O)N2CCCC2)cc1	Clone20 osteoblast Shn3 3'UTR firefly luciferase, 24 h	5.33 µM
CCOC(=O)c1cnc(-n2nc(C)cc2C)nc1NNc1cc(C)nc(-c2ccccc2)n1	Clone20 osteoblast Shn3 3'UTR firefly luciferase, 24 h	3.31 µM
COc1ccc(CN2CCC(C(=O)Nc3ccc(Oc4cccnc4)cc3)CC2)c(C)c1C	Clone20 osteoblast Shn3 3'UTR firefly luciferase, 24 h	3.68 µM

Using the record for CC(C)c1ccc(/C=C(\c2nc3ccccc3[nH]2)S(=O)(=O)c2ccccc2)cc1 , report its AC50.
4.01 µM

Using the record for Cc1cccc(CS(=O)(=O)c2ncc(Cl)c(C(=O)Nc3nnc(C(C)C)s3)n2)c1 , report its AC50.
1.62 µM

====

The reader will find reported AC50 values listed item by item below.
# Test system: Clone20 osteoblast Shn3 3'UTR firefly luciferase, 24 h
# TEST_PROTOCOL: Shn3 3'UTR reporter inhibitors, dose response, cell-based, Clone20 osteoblasts, luminescence, dry powder, set 2 (AID 743417)
Results filed as inconclusive are left out.

Solved entries:
COMPOUND	AC50
NS(=O)(=O)c1ccc(CNC(=S)NC(=O)c2ccco2)cc1	22900 nM
CC(C)C(=O)NC(c1cccc([N+](=O)[O-])c1)c1ccc2cccnc2c1O (centres undefined)	2570 nM
C=CCn1c(SCC(=O)c2[nH]c(C)c(C(=O)OC)c2C)nc2scc(-c3ccc(OC)c(OC)c3)c2c1=O	2010 nM

Could you now look at the following compound, please?
Using the record for Oc1ccc(-c2csc(Nc3cccc4ccccc34)n2)cc1O , report its AC50.
1580 nM

Values compiled from PubChem BioAssay AID743417.
